testDescription: in vivo
experimentalConditions: both, Sprague-Dawley, rat, plasma, intravenous, 0.2 mg/kg, alpha half-life, two compartment model
Non-standard residues stand in square brackets, D forms with d. Residues, ends and D or L forms follow the SMILES beside them. d1Nal = N[C@H](Cc1cccc2ccccc12)C(=O)O
quantity: half-life

Query: Fill in: half-life of CC(C)C[C@@H](NC(=O)[C@H](N)CCCCN)C(=O)N[C@H](Cc1ccccc1)C(=O)N[C@H](CCCNC(=N)N)C(=O)N[C@H](Cc1cccc2ccccc12)C(=O)N[C@H](CCC(N)=O)C(=O)N[C@H](C)C(=O)N[C@H](CCCCN)C(=O)N[C@H](Cc1cccc2ccccc12)C(N)=O [XMP.629] (H-[dK][dL][dF][dR][d1Nal][dQ][dA][dK][d1Nal]-NH2) is ___
Result: ~20 min

---

testDescription: in vivo
experimentalConditions: both, Sinclair mini-pig, minipig, plasma, iv, 0.05 mg/kg
Non-standard residues stand in square brackets, D forms with d. Residues, ends and D or L forms follow the SMILES beside them. d1Nal = N[C@H](Cc1cccc2ccccc12)C(=O)O
quantity: Vd (L/kg)
// return numeric value only (unit: L/kg, not printed)

Query: Fill in: Vd of CC(C)C[C@@H](NC(=O)[C@H](N)CCCCN)C(=O)N[C@H](Cc1ccccc1)C(=O)N[C@H](CCCNC(=N)N)C(=O)N[C@H](Cc1cccc2ccccc12)C(=O)N[C@H](CCC(N)=O)C(=O)N[C@H](C)C(=O)N[C@H](CCCCN)C(=O)N[C@H](Cc1cccc2ccccc12)C(N)=O [XMP.629] (H-[dK][dL][dF][dR][d1Nal][dQ][dA][dK][d1Nal]-NH2) is ___
Result: 1.79

---

testDescription: physchem
experimentalConditions: purified water
Non-standard residues stand in square brackets, D forms with d. Residues, ends and D or L forms follow the SMILES beside them. d1Nal = N[C@H](Cc1cccc2ccccc12)C(=O)O
quantity: solubility

Query: Fill in: solubility of CC(C)C[C@@H](NC(=O)[C@H](N)CCCCN)C(=O)N[C@H](Cc1ccccc1)C(=O)N[C@H](CCCNC(=N)N)C(=O)N[C@H](Cc1cccc2ccccc12)C(=O)N[C@H](CCC(N)=O)C(=O)N[C@H](C)C(=O)N[C@H](CCCCN)C(=O)N[C@H](Cc1cccc2ccccc12)C(N)=O [XMP.629 acetate] (H-[dK][dL][dF][dR][d1Nal][dQ][dA][dK][d1Nal]-NH2) is ___
Result: < 1660 µg/mL

---

testDescription: in vivo
experimentalConditions: both, Sinclair, minipig, plasma, iv, 0.05 mg/kg
Non-standard residues stand in square brackets, D forms with d. Residues, ends and D or L forms follow the SMILES beside them. d1Nal = N[C@H](Cc1cccc2ccccc12)C(=O)O
quantity: clearance (mL/min/kg)
// return numeric value only (unit: mL/min/kg, not printed)

Query: Fill in: clearance of CC(C)C[C@@H](NC(=O)[C@H](N)CCCCN)C(=O)N[C@H](Cc1ccccc1)C(=O)N[C@H](CCCNC(=N)N)C(=O)N[C@H](Cc1cccc2ccccc12)C(=O)N[C@H](CCC(N)=O)C(=O)N[C@H](C)C(=O)N[C@H](CCCCN)C(=O)N[C@H](Cc1cccc2ccccc12)C(N)=O [XMP.629] (H-[dK][dL][dF][dR][d1Nal][dQ][dA][dK][d1Nal]-NH2) is ___
Result: 2.59

---

testDescription: physchem
experimentalConditions: sodium acetate buffer, pH 6
Non-standard residues stand in square brackets, D forms with d. Residues, ends and D or L forms follow the SMILES beside them. d1Nal = N[C@H](Cc1cccc2ccccc12)C(=O)O
quantity: solubility

Query: Fill in: solubility of CC(C)C[C@@H](NC(=O)[C@H](N)CCCCN)C(=O)N[C@H](Cc1ccccc1)C(=O)N[C@H](CCCNC(=N)N)C(=O)N[C@H](Cc1cccc2ccccc12)C(=O)N[C@H](CCC(N)=O)C(=O)N[C@H](C)C(=O)N[C@H](CCCCN)C(=O)N[C@H](Cc1cccc2ccccc12)C(N)=O [XMP.629 acetate] (H-[dK][dL][dF][dR][d1Nal][dQ][dA][dK][d1Nal]-NH2) is ___
Result: > 1640 µg/mL

---

testDescription: in vivo
experimentalConditions: both, rat, plasma, po, 10 mg/kg, AUCall, 10 mg/kg XMP.629 acetate oral gavage in 5% glucose, mean
Non-standard residues stand in square brackets, D forms with d. Residues, ends and D or L forms follow the SMILES beside them. d1Nal = N[C@H](Cc1cccc2ccccc12)C(=O)O
quantity: AUC (ng·h/mL)
// return numeric value only (unit: ng·h/mL, not printed)

Query: Fill in: AUC of CC(C)C[C@@H](NC(=O)[C@H](N)CCCCN)C(=O)N[C@H](Cc1ccccc1)C(=O)N[C@H](CCCNC(=N)N)C(=O)N[C@H](Cc1cccc2ccccc12)C(=O)N[C@H](CCC(N)=O)C(=O)N[C@H](C)C(=O)N[C@H](CCCCN)C(=O)N[C@H](Cc1cccc2ccccc12)C(N)=O [XMP.629] (H-[dK][dL][dF][dR][d1Nal][dQ][dA][dK][d1Nal]-NH2) is ___
Result: 1.67

---

testDescription: in vivo
experimentalConditions: both, rat, plasma, po, 10 mg/kg, % F (bioavailability), 10 mg/kg XMP.629 acetate oral gavage in 5% glucose, mean
Non-standard residues stand in square brackets, D forms with d. Residues, ends and D or L forms follow the SMILES beside them. d1Nal = N[C@H](Cc1cccc2ccccc12)C(=O)O
quantity: bioavailability

Query: Fill in: bioavailability of CC(C)C[C@@H](NC(=O)[C@H](N)CCCCN)C(=O)N[C@H](Cc1ccccc1)C(=O)N[C@H](CCCNC(=N)N)C(=O)N[C@H](Cc1cccc2ccccc12)C(=O)N[C@H](CCC(N)=O)C(=O)N[C@H](C)C(=O)N[C@H](CCCCN)C(=O)N[C@H](Cc1cccc2ccccc12)C(N)=O [XMP.629] (H-[dK][dL][dF][dR][d1Nal][dQ][dA][dK][d1Nal]-NH2) is ___
Result: 0.0044%

---

testDescription: in vivo
experimentalConditions: both, Sinclair, minipig, plasma, iv, 0.2 mg/kg
Non-standard residues stand in square brackets, D forms with d. Residues, ends and D or L forms follow the SMILES beside them. d1Nal = N[C@H](Cc1cccc2ccccc12)C(=O)O
quantity: clearance (mL/min/kg)
// return numeric value only (unit: mL/min/kg, not printed)

Query: Fill in: clearance of CC(C)C[C@@H](NC(=O)[C@H](N)CCCCN)C(=O)N[C@H](Cc1ccccc1)C(=O)N[C@H](CCCNC(=N)N)C(=O)N[C@H](Cc1cccc2ccccc12)C(=O)N[C@H](CCC(N)=O)C(=O)N[C@H](C)C(=O)N[C@H](CCCCN)C(=O)N[C@H](Cc1cccc2ccccc12)C(N)=O [XMP.629] (H-[dK][dL][dF][dR][d1Nal][dQ][dA][dK][d1Nal]-NH2) is ___
Result: 1.74

---

testDescription: in vivo
experimentalConditions: both, rat, plasma, po, 10 mg/kg, Cmax, 10 mg/kg XMP.629 acetate oral gavage in distilled water, mean
Non-standard residues stand in square brackets, D forms with d. Residues, ends and D or L forms follow the SMILES beside them. d1Nal = N[C@H](Cc1cccc2ccccc12)C(=O)O
quantity: Cmax (ng/mL)
// return numeric value only (unit: ng/mL, not printed)

Query: Fill in: Cmax of CC(C)C[C@@H](NC(=O)[C@H](N)CCCCN)C(=O)N[C@H](Cc1ccccc1)C(=O)N[C@H](CCCNC(=N)N)C(=O)N[C@H](Cc1cccc2ccccc12)C(=O)N[C@H](CCC(N)=O)C(=O)N[C@H](C)C(=O)N[C@H](CCCCN)C(=O)N[C@H](Cc1cccc2ccccc12)C(N)=O [XMP.629] (H-[dK][dL][dF][dR][d1Nal][dQ][dA][dK][d1Nal]-NH2) is ___
Result: 1.5

---

testDescription: in vivo
experimentalConditions: both, Sinclair, minipig, plasma, iv, 0.05 mg/kg
Non-standard residues stand in square brackets, D forms with d. Residues, ends and D or L forms follow the SMILES beside them. d1Nal = N[C@H](Cc1cccc2ccccc12)C(=O)O
quantity: MRT (h)
// return numeric value only (unit: h, not printed)

Query: Fill in: MRT of CC(C)C[C@@H](NC(=O)[C@H](N)CCCCN)C(=O)N[C@H](Cc1ccccc1)C(=O)N[C@H](CCCNC(=N)N)C(=O)N[C@H](Cc1cccc2ccccc12)C(=O)N[C@H](CCC(N)=O)C(=O)N[C@H](C)C(=O)N[C@H](CCCCN)C(=O)N[C@H](Cc1cccc2ccccc12)C(N)=O [XMP.629] (H-[dK][dL][dF][dR][d1Nal][dQ][dA][dK][d1Nal]-NH2) is ___
Result: 11.3
